# System: L1210
# TEST_PROTOCOL: Cytotoxicity was determined in vitro in murine leukemia L1210 Cells
# Assay type: functional
# CONDITION: Mus musculus, read-out: ID50 (the source's name)
pIC50: −log10 of the molar value.
Classification field: enter True for pIC50 values not below 6, False for values below it.

Cc1c2cc[n+](C)cc2c(C)c2c3c([nH]c12)C=CC(=O)[C@@]31O[C@@H]2[C@H](O1)[C@@H](CO)O[C@H]2n1ccc(N)nc1=O
False
Cc1c2cc[n+](C)cc2c(C)c2c3c([nH]c12)C=CC(=O)[C@@]31O[C@@H]2[C@H](O1)[C@@H](COP(=O)(O)O)O[C@H]2n1ccc(N)nc1=O
False
Cc1c2cc[n+](C)cc2c(C)c2c3c([nH]c12)C=CC(=O)[C@@]31O[C@@H]2[C@H](O1)[C@@H](CO)O[C@H]2n1ccc(=O)[nH]c1=O
False
Cc1c2cc[n+](C)cc2c(C)c2c1[nH]c1ccc(O)cc12 [ELLIPTINIUM ACETATE]
True
Nc1nc(=S)c2ncn([C@@H]3O[C@H](CO)[C@@H](O)[C@H]3O)c2[nH]1 [THIOGUANOSINE]
True

Task item: Decide: pIC50 of `Cc1c2cc[n+](C)cc2c(C)c2c3c([nH]c12)C=CC(=O)[C@@]31O[C@@H]2[C@H](O1)[C@@H](COP(=O)(O)O)O[C@H]2n1cnc2c(O)nc(N)nc21` >= 6?
Reply: False

Task item: hey, is pIC50 for this one >= 6? `Cc1c2cc[n+](C)cc2c(C)c2c3c([nH]c12)C=CC(=O)[C@@]31O[C@@H]2[C@H](O1)[C@@H](CO)O[C@H]2n1ncc(=O)[nH]c1=O`
Reply: False

Task item: Threshold query (pIC50 >= 6) on Nc1nc2[nH]cnc2c(=S)[nH]1 [THIOGUANINE]
Reply: True

Task item: Textbook exercise: given the entry O=c1cnn([C@@H]2O[C@H](CO)[C@@H](O)[C@H]2O)c(=O)[nH]1 [6-AZAURIDINE] , state whether its pIC50 is greater than or equal to 6.
Reply: True
